Target: T1, PUF4 RNA-binding domain (Saccharomyces cerevisiae, UniProt P25339 537-888)
T1 sequence: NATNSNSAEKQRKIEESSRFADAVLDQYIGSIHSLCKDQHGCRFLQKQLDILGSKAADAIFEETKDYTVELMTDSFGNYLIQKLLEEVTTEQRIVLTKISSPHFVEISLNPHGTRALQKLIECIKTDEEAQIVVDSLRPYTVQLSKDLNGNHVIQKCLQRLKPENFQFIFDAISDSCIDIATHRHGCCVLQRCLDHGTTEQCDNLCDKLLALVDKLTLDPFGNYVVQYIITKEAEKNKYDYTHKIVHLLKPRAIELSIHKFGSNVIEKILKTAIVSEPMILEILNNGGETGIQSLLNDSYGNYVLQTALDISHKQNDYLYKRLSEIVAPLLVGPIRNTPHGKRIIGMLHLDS
Experiment: Mg; RNA-MaP; 20 mM Na-HEPES pH 7.4, 30 mM KOAc, 0.75 mM MgCl2, 0.1% Tween-20, 5% glycerol, 0.1 mg/mL BSA, 2 mM DTT; 25 C; 0.0125-409.6 nM protein
Settings: tags: N-His6-TEV cleaved; C-SNAP kept, Cy3B-labelled; label: tethered on chip by stalled RNA polymerase
# strict inequality: Kd < 5 nM yields fulfilled, everything else yields not fulfilled

As a guide, the following entries are already answered.
Binder	Group
Ie_S4_P5E.1_K5.1_C5.1_H5.1_[+1TT]_A5.1_F5.1_T5.1 (ssRNA) RNA: UUUGACAACUGAUCGUUCUUUCUUUUGUAUUAUUAUUCUUUCUCGAUCAGUUGUCUUU	fulfilled
Ie_S4_P3E.2_K3.1_C3.2_H3.1_[+3CCTCT]_A3.1_F3.1_T3.2 (ssRNA) RNA: UUUGACAACUGAUCGUUCUUUCUCUUGUCCUCUAUAUAUAUUCUUUCUCGAUCAGUUGUCUUU	not fulfilled
UCUCUUUCUGUAUUAUUAUGUCUCUU (ssRNA) [Id_ii_S1_P5E.2_K5.1_C5.2_[C-2T]_[T-1C]_H5.1_A5.1_F5.1_T5.2_[A12G]]	not fulfilled
Id_ii_S2_P3E.4_K3.3_C3.2_[C-2G]_[T-1C]_H3.3_A3.1_F3.1_T3.2_[T9A]_[A10C] (ssRNA) RNA: UUUGAUUAAUAUGAUAUCGUUCUUUCUGCACACUAUAACUUCUUUCUCGAUAUCAUAUUAAUCUUU	not fulfilled

query: Hello, I'm reviewing records and need to know if Kd of UCUCUUUUUGUAUAUAGGUCUCUU (ssRNA) [Id_ii_S1_P3E.2_K3.1_C3.2_[C-2T]_H3.1_A3.1_F3.1_T3.2_[T9G]_[A10G]] is below 5 nM. Could you check?
result: not fulfilled

query: Criterion: Kd strictly below 5 nM. Is it met by UCUCUUCUUGUAUAUCUCUCAUAUCUCUU (ssRNA) [Ie_S1_P3E.2_K3.1_C3.2_H3.1_A3.1_F3.1_[+7CTCTC]_T3.2] ?
result: not fulfilled
